Molecular target: T1, AFP158/HLA-A*02:01 complex (human)
T1 construct: biotinylated on the BSP by BirA for ELISA and panning; also called biotinylated AFP158/HLA-A*02:01 complex; Bio-AFP158
Experiment: SPR, scFv-mIgG2aFc from supernatant captured, complex as analyte
Could you please report measured kon for the items listed next?
Give bare numbers, in M⁻¹ s⁻¹.

Req: Using known records, supply kon for AS179723 scFv-mIgG2aFc (Fc fusion, not shown: a dimerising Fc or GST, Camel scFv; i647-labelled for flow cytometry) QAGLTQPPSMSGSPRQSVTISCTGSSNNIGGNYVNWYQHLPGTAPKLLIYDNKNRPSGVPEQISGSKSGSSASLTITGLQAEDEGDYYCASWDDSLSAVVFGGGTHLTVLGGGGSGGGGSGGGGSEVQLVESGGGLVQPGGSLRLSCAASGFTFLNYAMSWVRQAPGKGLEWVSSNSGAGSTYYSDSVKGRFTISRDYAKNVVYLQLNSLKTEDTGMYYCAKGTNVGSWSSLHYWGQGTQVTVSS
Resp: 150000

Next item in the queue.
Req: Using known records, supply kon for AS179723 VL1g1VH1g1 scFv-mIgG2aFc (Fc fusion, not shown: a dimerising Fc or GST) scFv: QSVLTQPPSASGTPGQRVTISCSGSSNNIGGNYVNWYQQLPGTAPKLLIYDNKNRPSGVPDRFSGSKSGTSASLAISGLQSEDEADYYCASWDDSLSAVVFGGGTKLTVLGGGGSGGGGSGGGGSEVQLVESGGGLVQPGGSLRLSCAASGFTFLNYAMSWVRQAPGKGLEWVSSNSGAGSTYYADSVKGRFTISRDNSKNTLYLQMNSLRAEDTAVYYCAKGTNVGSWSSLHYWGQGTLVTVSS
Resp: 91000
